system: Plasmodium berghei; experiment: Screen against P. berghei liver stage (PbLuc), transformed with Luciferase, at 10uM; assay type: functional, HepG2; settings: tested at 10 uM
Out of some 69,000 compounds screened, about 8,600 (12%) showed an effect of 50% or more. The list comes from a sample in which strong results are over-represented; it also holds close analogues and randomly drawn compounds.

| MOLECULE | INHIBITION, % |
| --- | --- |
| COc1cc(CNCc2c(C)nn(CC(C)C)c2N(C)C)ccn1 | 77.1 |
| Cc1nn(C)cc1C1CC(=O)Nc2c1cnn2C(C)(C)C (configuration not stated) | -16.5 |
| c1cc2c(cc1CN1C[C@@H]3COC[C@@H](N4CCCC4)[C@@H]3C1)OCO2 | 39.4 |
| O=C(NC1CC1)[C@H]1C[C@H]2OCC[C@H]2N(Cc2ccc(F)cc2)C1 | -15.3 |
| Cc1cnc(C(=O)N2CCc3ncnc(-c4cnn(C)c4)c3CC2)cn1 | -3.33 |
| CC(C)CCN(CCC(C)C)Cc1nc2c(cnn2C)c(=O)[nH]1 | -11.58 |
| Cc1ccc(F)c2c1CCCN2CC(=O)NC1CCS(=O)(=O)C1 (configuration not stated) | 45 |
| CS(=O)(=O)c1ccc(C(=O)N2CCCC(n3ccnc3)C2)cc1 (configuration not stated) | -9.76 |
| CCn1nc(C)c(NC(=O)CN2CCN(C(C)=O)CC2)c1C | -4.23 |
| Cc1cc(C)n(Cc2cccc(C(=O)NCCSCC(C)(C)O)c2)n1 | 0.426 |
| Cn1cc(CN(Cc2ccccc2)Cc2ccccn2)cn1 | 1.62 |
| Cc1nn(CC(C)C)c(N(C)C)c1CNCc1cc2ccccc2[nH]1 | 67.3 |
| CCCOc1cc(C)ccc1NC(=O)NCCNC(C)=O | 1.06 |
| COc1ccc(OC)c([C@@H]2N[C@H](c3nccs3)Cc3ccsc32)c1 | 43.4 |
| Cc1nn(CC(C)C)c(N(C)C)c1CNCc1cccnc1N(C)C | 43.7 |
| NC(=O)CSc1ccccc1NC(=O)C1CCCC1 | -53.6 |
| Cc1cnn(CC2CCCCN2CC(=O)NCc2ccccn2)c1 (configuration not stated) | -4.74 |
| O[C@H]1CCCC[C@@H]1N1CCN(CCCc2ccc3c(c2)OCO3)CC1 | 53.8 |
| CCc1nc(C2CCCN(C(=O)c3cnn(CC)c3)C2)no1 (configuration not stated) | -8.69 |
| O=S(=O)(Cc1ccccc1)c1nnc(N2CCOCC2)s1 | 0 |
| O=S(=O)(Cc1ccccc1)c1nnc(N2CCCC2)s1 | 53.8 |
| O=C(C1CCCOC1)N1CCN(CC(F)(F)F)c2ccccc21 (configuration not stated) | 11.3 |

###

test system: Plasmodium berghei; assay: Screen against P. berghei liver stage (PbLuc), transformed with Luciferase, at 10uM; type: functional, HepG2; settings: tested at 10 uM
The campaign covered roughly 69,000 compounds. About 8,600 (12%) showed an effect of 50% or more. For the sample, strong results were picked, then their nearest neighbours and some compounds at random.

| SMILES STR | UNIT SYMBOL | INHIBITION |
| --- | --- | --- |
| Cn1cccc1C(=O)N1CCC2(CCCN2S(C)(=O)=O)CC1 | % | 28.2 |
| COc1ccccc1C1(CNc2cn[nH]c(=O)c2Cl)CCOCC1 | % | -9.69 |
| O=C(Cn1ccc2cc(Br)ccc21)NC[C@@H]1CCCN2CCCC[C@H]12 | % | 58.3 |
| CN1CC[C@H](N(Cc2ccccc2)CC2CC2)C[C@H](O)C1 | % | 23.7 |
| Cn1cc(CN2CCCC23CCN(C(=O)c2cccn2C)CC3)cn1 | % | 66 |
| COc1ccccc1C1(CNc2snc(Cl)c2C#N)CCOCC1 | % | 53.4 |
| CN(C)Cc1nnc2n1CCN(c1cnccn1)CC2 | % | -4.02 |
| COC[C@@H]1CCCN1C(=O)CCc1c(C)nn(C)c1C | % | 8.7 |
| CN(C)c1nc2c(c(N(C)Cc3n[nH]c4c3CCCC4)n1)CCNCC2 | % | 70.2 |
| Cn1cccc1C(=O)N1CCC2(CCCN2Cc2ccccc2)CC1 | % | 45.3 |
| CN(Cc1n[nH]c2c1CCCC2)c1nc(C2CC2)nc2c1CCNCC2 | % | 62.8 |
| CN(Cc1cc2n(n1)CCNC2)Cc1n[nH]c2c1CCCCC2 | % | 44.3 |
| COc1cc(C)nc(N2CCN(C(=O)COC3CCCC3)CC2)n1 | % | 26.36 |
| COc1ccccc1C1(CNc2snc(Cl)c2C#N)CCCC1 | % | 80.2 |
